# Assay comment: MMV: MTT Cytotoxicity Assay Day 7 pi of Assay #11 (NO washout), U87-CD4-CXCR4 cells, % cell death @ 5mM compound
# Format: toxicity, cell-based
# Condition summary: human, u87-cd4-cxcr4, 5000 µM
Listed below: % Cell Death values for each entry.
// keep it numeric: no unit symbol after the value

1. CCC(O)c1ccc(Br)cc1NC(=O)c1cccc(Cl)c1 (configuration not stated) ... -37

Lookup: Which % Cell Death is listed for COc1ccc(CCNC(=O)c2cc(S(=O)(=O)N3CC(C)CC(C)C3)ccc2Sc2ccc(F)cc2)cc1OC (configuration not stated) ?
Found: 29

Lookup: Queued: CCCCCCn1c(=N)n(CC(O)COc2cccc(C)c2)c2ccccc21.Cl (configuration not stated)
Found: 50

Lookup: Please do the same for CCCCCCc1cc(O)c2c3c(c(=O)oc2c1)CCC(C)C3 (configuration not stated) as well.
Found: 9

* * *

# Assay comment: MMV: MTT Cytotoxicity Assay Day 7 pi of Assay #6 (compound washed out Day 1 pi), U87-CD4-CCR5 cells, % cell death @ 5mM compound
# Assay type: toxicity, cell-based
# Condition summary: human, u87-cd4-ccr5, 5000 µM
Measured property: % Cell Death

1) O=c1c2c([nH]c3ccccc13)CCCC2 ... 7
2) COc1cc(OC)c(N(C)C(=O)c2cc3c(s2)-c2ccccc2S(=O)(=O)C3)cc1Cl ... 22
3) CN(C)CCCNc1c2ccccc2nc2ccccc12 ... 8
4) CCN(CC)CCn1c(=N)n(CC(O)c2ccc(Cl)c(Cl)c2)c2ccccc21.Cl (stereo not drawn) ... 14
5) CCOc1cc(CNC(C)C(O)c2ccccc2)cc(Cl)c1OCC (stereo not drawn) ... 32
6) COc1ccc(-c2c(C)nn3c(N)c(C#N)cnc23)cc1OC ... 93

Lookup: What value of % Cell Death has been recorded for this entry: CCOc1ccc(N2C(N)=NC(N)=NC2(C)C)cc1.Cl
Found: 56

Lookup: // query: CCn1c(CN2CCN(Cc3ccccc3)CC2)nc2cc(NC(=O)c3cccs3)ccc21
Found: 12

Lookup: Now this one: Cc1cc(N2CCN(C3CCCC3)CC2)n2c(nc3ccccc32)c1C#N
Found: 48

Lookup: Proceed to CC1CCCCN1CCCNC(=O)c1ccc2c(c1)sc1nc(-c3ccc(F)cc3)cn12 (stereo not drawn)
Found: 29

Lookup: Similarly, O=C(NC1CCN(Cc2ccccc2)CC1)c1cc(-c2ccncc2)nc2ccc(Cl)cc12 ?
Found: -18

Lookup: Quick one: O=C(CCl)NCCOc1ccc(Cl)cc1Cl
Found: -19

Lookup: And then CCCCCCc1cc2cc(-c3csc(C=Cc4ccccc4)n3)c(=O)oc2cc1O , what is it?
Found: -23

Lookup: Field entry: O=C1c2ccc3c4c(ccc(c24)C(=O)N1CCCCO)C(=O)N(CCCCO)C3=O
Found: 16

Lookup: How about this compound: O=C(Nc1ccc(-c2nc3cc(NC(=O)c4ccc(Cl)cc4)ccc3[nH]2)cc1)c1ccc(Cl)cc1
Found: -14

Lookup: Next entry: CCOc1ccc(-n2cc(-c3ccccc3)c3c(SCc4cc(C)ccc4C)ncnc32)cc1
Found: 11

Lookup: Similarly, OC1CCCCC1C1(NC(=S)Nc2ccccc2)CCCCC1 (stereo not drawn) ?
Found: -5

Lookup: Input Cl.Oc1ccccc1CNCC12CC3CC(CC(C3)C1)C2
Found: 20

Lookup: Repeat for the following compound: Cc1ccc(-c2cc3c(nn2)-c2ccccc2C3=O)cc1
Found: 48

Lookup: Subsequent entry: CNCCCNc1ccnc2cc(Cl)ccc12
Found: 97

Lookup: Same again, this time with O=C(NCc1ccco1)C1CCN(S(=O)(=O)c2ccc(Cl)cc2)CC1
Found: 37

Lookup: Repeat for the following compound: O=C(Nc1ccccc1O)c1ccc(-c2ccc(Cl)cc2Cl)o1
Found: 34

Lookup: Subsequent entry: COc1ccc(CNC(=O)c2cc3c(=O)n4ccccc4nc3n(CCc3ccccc3)c2=N)cc1
Found: -17

Lookup: Same for COCCNC(=O)c1ccc(OC2CCN(Cc3ccc(F)c(F)c3)CC2)c(Cl)c1
Found: 20

Lookup: Next compound: CCOc1ccc2nc(C)cc(Nc3ccc(N(C)C)cc3)c2c1.Cl
Found: -13
